Source listed as ChEMBL document CHEMBL1129020.

Target: Protein kinase C gamma type (Homo sapiens, UniProt P05129)
Experiment: Inhibition of Protein kinase C gamma
observation-type: pIC50
// pIC50: -log10(molar conc.)

compound: O=C(N[C@@H]1CNCCCC1OC(=O)c1cc(O)c(C(=O)c2c(O)cccc2C(=O)O)c(O)c1)c1ccc(O)cc1 (stereo partly drawn)
experimental-target: Protein kinase C gamma type (Homo sapiens, UniProt P05129)
meas-value: 8.00
//
compound: O=C(N[C@H]1CNCCCC1OC(=O)c1cc(O)c(C(=O)c2c(O)cccc2C(=O)O)c(O)c1)c1ccc(O)cc1 (stereo partly drawn)
experimental-target: Protein kinase C gamma type (Homo sapiens, UniProt P05129)
meas-value: 6.40

query: Need pIC50, item O=C(NC1CNCCCC1OC(=O)c1cc(O)c(C(=O)c2c(O)cccc2C(=O)O)c(O)c1)c1ccc(O)cc1 (racemic)
result: 6.85

###

Target: Protein kinase C delta type (Homo sapiens, UniProt Q05655)
Sequence (Q05655 whole entry): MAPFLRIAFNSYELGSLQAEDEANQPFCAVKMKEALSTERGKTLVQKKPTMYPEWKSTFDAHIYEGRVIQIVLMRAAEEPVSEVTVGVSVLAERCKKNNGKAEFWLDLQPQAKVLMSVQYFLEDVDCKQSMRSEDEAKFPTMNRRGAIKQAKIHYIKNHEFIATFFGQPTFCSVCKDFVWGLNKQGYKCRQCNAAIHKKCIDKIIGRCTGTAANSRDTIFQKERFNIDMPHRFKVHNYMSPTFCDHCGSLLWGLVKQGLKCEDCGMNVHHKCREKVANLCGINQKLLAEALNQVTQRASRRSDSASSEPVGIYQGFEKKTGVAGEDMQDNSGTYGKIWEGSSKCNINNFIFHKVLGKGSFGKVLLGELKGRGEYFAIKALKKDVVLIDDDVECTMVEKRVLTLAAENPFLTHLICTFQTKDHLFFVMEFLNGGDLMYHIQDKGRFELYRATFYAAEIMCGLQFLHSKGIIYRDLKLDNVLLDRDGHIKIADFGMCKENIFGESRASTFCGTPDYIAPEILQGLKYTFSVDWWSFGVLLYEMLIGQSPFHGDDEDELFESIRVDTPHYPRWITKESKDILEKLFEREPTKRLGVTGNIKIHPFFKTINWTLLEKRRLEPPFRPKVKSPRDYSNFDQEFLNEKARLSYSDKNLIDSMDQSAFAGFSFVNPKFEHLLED
Experiment: Inhibition of Protein kinase C delta
observation-type: IC50 (nM)
Just the number in nM, nothing appended.

Example cases with answers are listed next.
molecule: O=C(NC1CNCCCC1OC(=O)c1cc(O)c(C(=O)c2c(O)cccc2C(=O)O)c(O)c1)c1ccc(O)cc1 (racemic)
observation-type: IC50
measurement-units: nM
meas-value: 50
//
molecule: O=C(N[C@@H]1CNCCCC1OC(=O)c1cc(O)c(C(=O)c2c(O)cccc2C(=O)O)c(O)c1)c1ccc(O)cc1 (stereo partly drawn)
observation-type: IC50
measurement-units: nM
meas-value: 4

query: Fill in the recorded IC50 for this molecule, with Protein kinase C delta type (Homo sapiens, UniProt Q05655) as test system: O=C(N[C@H]1CNCCCC1OC(=O)c1cc(O)c(C(=O)c2c(O)cccc2C(=O)O)c(O)c1)c1ccc(O)cc1 (stereo partly drawn)
result: 420

###

Biological target: Protein kinase C beta type (Homo sapiens, UniProt P05771)
Sequence (P05771 whole entry): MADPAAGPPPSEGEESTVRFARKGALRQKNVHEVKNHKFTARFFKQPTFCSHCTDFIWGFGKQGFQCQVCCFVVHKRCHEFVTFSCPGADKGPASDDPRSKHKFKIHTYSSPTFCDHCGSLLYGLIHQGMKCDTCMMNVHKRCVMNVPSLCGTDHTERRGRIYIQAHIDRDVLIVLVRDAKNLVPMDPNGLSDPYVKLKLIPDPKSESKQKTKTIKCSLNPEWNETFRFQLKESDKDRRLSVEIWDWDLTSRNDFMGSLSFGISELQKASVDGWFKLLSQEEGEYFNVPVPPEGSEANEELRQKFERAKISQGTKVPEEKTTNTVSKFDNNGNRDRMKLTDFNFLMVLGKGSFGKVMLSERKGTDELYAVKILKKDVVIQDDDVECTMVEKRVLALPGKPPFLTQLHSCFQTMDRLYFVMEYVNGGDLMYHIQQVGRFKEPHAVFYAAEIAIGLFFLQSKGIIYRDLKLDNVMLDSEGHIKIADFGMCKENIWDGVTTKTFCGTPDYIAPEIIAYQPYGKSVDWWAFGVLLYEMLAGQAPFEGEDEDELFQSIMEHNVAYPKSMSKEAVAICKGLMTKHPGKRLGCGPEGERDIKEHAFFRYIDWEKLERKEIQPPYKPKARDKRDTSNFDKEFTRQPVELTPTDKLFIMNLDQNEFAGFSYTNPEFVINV
Assay: Inhibition of protein kinase C beta 1
observation-type: pIC50
# log scale: pIC50 equals minus log10 of the concentration in mol/L

Worked examples follow.
molecule: O=C(N[C@H]1c2ccccc2CC1OC(=O)c1cc(O)c(C(=O)c2c(O)cccc2C(=O)O)c(O)c1)c1ccc(O)cc1 (mixture of isomers)
meas-value: 4.43
--
molecule: O=C(N[C@@H]1c2ccccc2CC1OC(=O)c1cc(O)c(C(=O)c2c(O)cccc2C(=O)O)c(O)c1)c1ccc(O)cc1 (mixture of isomers)
meas-value: 6.70

query: Please provide the recorded pIC50 for O=C(N[C@@H]1CNCC1OC(=O)c1cc(O)c(C(=O)c2c(O)cccc2C(=O)O)c(O)c1)c1ccc(O)cc1 (some centres undefined) , tested on Protein kinase C beta type (Homo sapiens, UniProt P05771).
result: 8.00

query: Then this molecule: `O=C(N[C@@H]1c2ccccc2C[C@@H]1OC(=O)c1cc(O)c(C(=O)c2c(O)cccc2C(=O)O)c(O)c1)c1ccc(O)cc1`
result: 7.22

###

Molecular target: Protein kinase C beta type (Homo sapiens, UniProt P05771)
Assay: Inhibition of protein kinase C beta 1
pIC50: −log10 of the molar value.
observation-type: pIC50

Worked cases, pIC50 given:
compound: O=C(N[C@@H]1CCCC1OC(=O)c1cc(O)c(C(=O)c2c(O)cccc2C(=O)O)c(O)c1)c1ccc(O)cc1 (stereo partly drawn)
pIC50: 7.40
//
compound: O=C(N[C@@H]1c2ccccc2C[C@H]1OC(=O)c1cc(O)c(C(=O)c2c(O)cccc2C(=O)O)c(O)c1)c1ccc(O)cc1
pIC50: < 4.30

Could you now look at the following compound, please?
query: Recorded pIC50 for O=C(N[C@@H]1Cc2ccccc2C1OC(=O)c1cc(O)c(C(=O)c2c(O)cccc2C(=O)O)c(O)c1)c1ccc(O)cc1 (mixture of isomers) , please?
result: > 7.54

###

Property: pIC50; scope: individual molecules
Biological target: Protein kinase C delta type (Homo sapiens)
Assay: Inhibition of protein kinase C delta
Give only the number. pIC50 is defined as minus log10 of concentration in molar units.

Some entries whose results are on file:
molecule: O=C(N[C@@H]1CNCC1OC(=O)c1cc(O)c(C(=O)c2c(O)cccc2C(=O)O)c(O)c1)c1ccc(O)cc1 (some centres not stated)
pIC50: 8.30
//
molecule: O=C(N[C@@H]1c2ccccc2CC1OC(=O)c1cc(O)c(C(=O)c2c(O)cccc2C(=O)O)c(O)c1)c1ccc(O)cc1 (mixture of isomers)
pIC50: 7.52
//
molecule: O=C(N[C@H]1c2ccccc2CC1OC(=O)c1cc(O)c(C(=O)c2c(O)cccc2C(=O)O)c(O)c1)c1ccc(O)cc1 (mixture of isomers)
pIC50: 4.68
//
molecule: O=C(N[C@@H]1CCCC1OC(=O)c1cc(O)c(C(=O)c2c(O)cccc2C(=O)O)c(O)c1)c1ccc(O)cc1 (some centres not stated)
pIC50: 9.05
//
molecule: O=C(N[C@@H]1c2ccccc2C[C@@H]1OC(=O)c1cc(O)c(C(=O)c2c(O)cccc2C(=O)O)c(O)c1)c1ccc(O)cc1
pIC50: 7.30

query: Need pIC50 of `O=C(N[C@@H]1c2ccccc2C[C@H]1OC(=O)c1cc(O)c(C(=O)c2c(O)cccc2C(=O)O)c(O)c1)c1ccc(O)cc1` , thanks.
result: 4.49

###

Target: Protein kinase C beta type (Homo sapiens)
Assay: Inhibition of protein kinase C beta II
observation-type: log10(IC50) (log10 of the value in nM)
Base-10 log of IC50, unit nM.

Look over these answered cases.
molecule: O=C(N[C@@H]1CCCC1OC(=O)c1cc(O)c(C(=O)c2c(O)cccc2C(=O)O)c(O)c1)c1ccc(O)cc1 (some centres not stated)
meas-value: 1.70

molecule: O=C(N[C@@H]1c2ccccc2CC1OC(=O)c1cc(O)c(C(=O)c2c(O)cccc2C(=O)O)c(O)c1)c1ccc(O)cc1 (mixture of isomers)
meas-value: 2.23

molecule: O=C(N[C@@H]1c2ccccc2C[C@H]1OC(=O)c1cc(O)c(C(=O)c2c(O)cccc2C(=O)O)c(O)c1)c1ccc(O)cc1
meas-value: 4.59

molecule: O=C(N[C@H]1c2ccccc2CC1OC(=O)c1cc(O)c(C(=O)c2c(O)cccc2C(=O)O)c(O)c1)c1ccc(O)cc1 (mixture of isomers)
meas-value: 4.57

query: Give log10(IC50) (Protein kinase C beta type (Homo sapiens)) of the following molecule: O=C(N[C@@H]1CNCC1OC(=O)c1cc(O)c(C(=O)c2c(O)cccc2C(=O)O)c(O)c1)c1ccc(O)cc1 (some centres not stated)
result: 1.52

query: Try `O=C(N[C@@H]1c2ccccc2C[C@@H]1OC(=O)c1cc(O)c(C(=O)c2c(O)cccc2C(=O)O)c(O)c1)c1ccc(O)cc1` next.
result: 1.70

###

Biological target: Protein kinase C beta type (Homo sapiens)
Experiment: Inhibition of Protein kinase C beta 1
observation-type: IC50 (nM)
Only the number, expressed in nM, is required.

molecule: O=C(NC1CNCCCC1OC(=O)c1cc(O)c(C(=O)c2c(O)cccc2C(=O)O)c(O)c1)c1ccc(O)cc1 (racemic)
IC50 / nM: 80
//
molecule: O=C(N[C@@H]1CNCCCC1OC(=O)c1cc(O)c(C(=O)c2c(O)cccc2C(=O)O)c(O)c1)c1ccc(O)cc1 (stereo partly drawn)
IC50 / nM: 10

Kindly review the next molecule as well.
query: Name the reported IC50 value associated with the molecule O=C(N[C@H]1CNCCCC1OC(=O)c1cc(O)c(C(=O)c2c(O)cccc2C(=O)O)c(O)c1)c1ccc(O)cc1 (stereo partly drawn)
result: 500

###

Molecular target: cAMP-dependent protein kinase (PKA) (Homo sapiens, UniProt P22694+P17612+P22612)
Test: Inhibition of cAMP-dependent protein kinase (PKA)
Format: protein assay
Catalogue of IC50 values

# example entries with known answers
molecule: O=C(N[C@@H]1c2ccccc2CC1OC(=O)c1cc(O)c(C(=O)c2c(O)cccc2C(=O)O)c(O)c1)c1ccc(O)cc1 (mixture of isomers)
experimental-target: cAMP-dependent protein kinase (PKA) (Homo sapiens, UniProt P22694+P17612+P22612)
IC50: 50 µM

molecule: O=C(N[C@H]1c2ccccc2CC1OC(=O)c1cc(O)c(C(=O)c2c(O)cccc2C(=O)O)c(O)c1)c1ccc(O)cc1 (mixture of isomers)
experimental-target: cAMP-dependent protein kinase (PKA) (Homo sapiens, UniProt P22694+P17612+P22612)
IC50: > 100 µM

molecule: O=C(N[C@@H]1CNCC1OC(=O)c1cc(O)c(C(=O)c2c(O)cccc2C(=O)O)c(O)c1)c1ccc(O)cc1 (some centres undefined)
experimental-target: cAMP-dependent protein kinase (PKA) (Homo sapiens, UniProt P22694+P17612+P22612)
IC50: 0.07 µM

Next:
query: GET /values?readout=IC50&item= `O=C(N[C@@H]1c2ccccc2C[C@@H]1OC(=O)c1cc(O)c(C(=O)c2c(O)cccc2C(=O)O)c(O)c1)c1ccc(O)cc1`
result: 50 µM
